- ASSAY_SYSTEM: Cdk2(2-298) (Homo sapiens, UniProt P24941)
- Construct: Biotinylated N-terminal avi-tagged Cdk2(2-298) or Cdk1(1-297) was immobilized
- ASSAY_SUMMARY: Surface Plasmon Resonance (SPR) compound interaction, Biacore 8K
- EXPERIMENTAL_CONTEXT: single-cycle kinetics (SCK, "S"), dissociation 1800 sec, read-out: Activity rating (KD)
METRIC_NAME: Kd

Use these answered entries as a reference point.
N[C@H]1CC[C@H](Nc2nccc(-c3cncnc3Oc3ccc(NS(=O)(=O)c4ccccc4Cl)cc3F)n2)CC1 : ≤ 10 nM
CN1CC2(CC(Nc3nccc(-c4cnccc4Oc4ccc(NS(=O)(=O)c5ccccc5Cl)cc4F)n3)C2)C1 : 100 to 1000 nM
N[C@H]1CC[C@H](Nc2nccc(-c3cnccc3Oc3ccc(NS(=O)(=O)c4cccc5ccccc45)cc3F)n2)CC1 : 11 to 100 nM
O=S(=O)(Nc1ccc(Oc2ccccc2-c2ccnc(N[C@H]3CCCNC3)n2)c(F)c1)c1cccc2ccccc12 : 100 to 1000 nM
O=S(=O)(Nc1ccc(Oc2ccncc2-c2ccnc(NC3COC3)n2)c(F)c1)c1ccccc1Cl [Compound 89] : 11 to 100 nM
N[C@H]1CC[C@H](Nc2nccc(-c3cnccc3Oc3ccc(NS(=O)(=O)C4CC4)cc3F)n2)CC1 : > 5000 nM

Turning to the following molecule.
QUERY: Request - read-out Kd | tested on Cdk2(2-298) (Homo sapiens, UniProt P24941) | molecule O=S(=O)(Nc1ccc(Oc2ccncc2-c2ccnc(NCCN3CCOCC3)n2)c(F)c1)c1ccccc1Cl
RESULT: 100 to 1000 nM

---

- ASSAY_SYSTEM: Cdk2(2-298) (Homo sapiens, UniProt P24941)
- Construct: Biotinylated N-terminal avi-tagged Cdk2(2-298) or Cdk1(1-297) was immobilized
- ASSAY_SUMMARY: Surface Plasmon Resonance (SPR) compound interaction, Biacore 8K
- EXPERIMENTAL_CONTEXT: single-cycle kinetics (SCK, "S"), dissociation 1800 sec, read-out: Activity rating (KD)
Catalogue of Kd readings, one per entry.

CS(=O)(=O)Nc1ccc(Oc2ccncc2-c2ccnc(N[C@H]3CC[C@H](N)CC3)n2)c(F)c1 : 1000 to 5000 nM
O=S(=O)(Nc1ccc(Sc2ncccc2-c2ccnc(N[C@H]3CCCNC3)n2)c(F)c1)c1cccc2ccccc12 : 100 to 1000 nM
N[C@H]1CC[C@H](Nc2nccc(-c3cncnc3Oc3ccc(NS(=O)(=O)c4ccccc4)cc3F)n2)CC1 : 1000 to 5000 nM
COCCN1CC(Nc2nccc(-c3cnccc3Oc3ccc(NS(=O)(=O)c4ccccc4Cl)cc3F)n2)C1 : 11 to 100 nM

QUERY: Query Kd on Cdk2(2-298) (Homo sapiens, UniProt P24941) for CN(C)[C@H]1CC[C@H](Nc2nccc(-c3cnccc3Oc3ccc(NC(=O)c4ccccc4Cl)cc3F)n2)CC1
RESULT: 100 to 1000 nM

QUERY: Hi! What's the reported Kd for N[C@H]1CC[C@H](Nc2nccc(-c3cccnc3Sc3ccc(NS(=O)(=O)c4ccccc4Cl)cc3F)n2)CC1 on Cdk2(2-298) (Homo sapiens, UniProt P24941)?
RESULT: ≤ 10 nM

QUERY: Entry COCCNCCNc1nccc(-c2cnccc2Oc2ccc(NS(=O)(=O)c3ccccc3Cl)cc2F)n1 , system Cdk2(2-298) (Homo sapiens, UniProt P24941): what Kd was measured?
RESULT: 100 to 1000 nM

---

- ASSAY_SYSTEM: Cdk2(2-298) (Homo sapiens)
- Construct: Biotinylated N-terminal avi-tagged Cdk2(2-298) or Cdk1(1-297) was immobilized
- ASSAY_SUMMARY: Surface Plasmon Resonance (SPR) compound interaction, Biacore 8K
- EXPERIMENTAL_CONTEXT: single-cycle kinetics (SCK, "S"), dissociation 1800 sec, read-out: Activity rating (KD)
Recorded Kd, one value per entry.

Worked cases, Kd given:
N[C@H]1CC[C@H](Nc2nccc(-c3cnccc3Oc3ccc(NS(=O)(=O)c4ccc(CO)cc4F)c(F)c3)n2)CC1 : 100 to 1000 nM
N[C@H]1CC[C@H](Nc2nccc(-c3cnccc3Oc3ccc(NS(=O)(=O)c4ccccc4I)cc3F)n2)CC1 : ≤ 10 nM
N[C@H]1CC[C@H](Nc2nccc(-c3cc4ccccc4cc3Oc3ccc(NS(=O)(=O)c4ccccc4Cl)cc3F)n2)CC1 : ≤ 10 nM
N[C@H]1CC[C@H](Nc2nccc(-c3cnccc3Sc3ccc(NS(=O)(=O)c4cccc5ccccc45)cc3F)n2)CC1 : 100 to 1000 nM

Could you now look at the following compound, please?
QUERY: Any idea what Kd was measured for N[C@H]1CC[C@H](Nc2nccc(-c3cnccc3Oc3ccc(NS(=O)(=O)c4ccccc4)c(Cl)c3)n2)CC1 ?
RESULT: 100 to 1000 nM
